- assayed system: T1, MERS-CoV spike protein on live MERS-CoV (EMC, KNIH-002, KNIH-016 and KNIH-042 strains) (MERS-CoV)
- T1 chain: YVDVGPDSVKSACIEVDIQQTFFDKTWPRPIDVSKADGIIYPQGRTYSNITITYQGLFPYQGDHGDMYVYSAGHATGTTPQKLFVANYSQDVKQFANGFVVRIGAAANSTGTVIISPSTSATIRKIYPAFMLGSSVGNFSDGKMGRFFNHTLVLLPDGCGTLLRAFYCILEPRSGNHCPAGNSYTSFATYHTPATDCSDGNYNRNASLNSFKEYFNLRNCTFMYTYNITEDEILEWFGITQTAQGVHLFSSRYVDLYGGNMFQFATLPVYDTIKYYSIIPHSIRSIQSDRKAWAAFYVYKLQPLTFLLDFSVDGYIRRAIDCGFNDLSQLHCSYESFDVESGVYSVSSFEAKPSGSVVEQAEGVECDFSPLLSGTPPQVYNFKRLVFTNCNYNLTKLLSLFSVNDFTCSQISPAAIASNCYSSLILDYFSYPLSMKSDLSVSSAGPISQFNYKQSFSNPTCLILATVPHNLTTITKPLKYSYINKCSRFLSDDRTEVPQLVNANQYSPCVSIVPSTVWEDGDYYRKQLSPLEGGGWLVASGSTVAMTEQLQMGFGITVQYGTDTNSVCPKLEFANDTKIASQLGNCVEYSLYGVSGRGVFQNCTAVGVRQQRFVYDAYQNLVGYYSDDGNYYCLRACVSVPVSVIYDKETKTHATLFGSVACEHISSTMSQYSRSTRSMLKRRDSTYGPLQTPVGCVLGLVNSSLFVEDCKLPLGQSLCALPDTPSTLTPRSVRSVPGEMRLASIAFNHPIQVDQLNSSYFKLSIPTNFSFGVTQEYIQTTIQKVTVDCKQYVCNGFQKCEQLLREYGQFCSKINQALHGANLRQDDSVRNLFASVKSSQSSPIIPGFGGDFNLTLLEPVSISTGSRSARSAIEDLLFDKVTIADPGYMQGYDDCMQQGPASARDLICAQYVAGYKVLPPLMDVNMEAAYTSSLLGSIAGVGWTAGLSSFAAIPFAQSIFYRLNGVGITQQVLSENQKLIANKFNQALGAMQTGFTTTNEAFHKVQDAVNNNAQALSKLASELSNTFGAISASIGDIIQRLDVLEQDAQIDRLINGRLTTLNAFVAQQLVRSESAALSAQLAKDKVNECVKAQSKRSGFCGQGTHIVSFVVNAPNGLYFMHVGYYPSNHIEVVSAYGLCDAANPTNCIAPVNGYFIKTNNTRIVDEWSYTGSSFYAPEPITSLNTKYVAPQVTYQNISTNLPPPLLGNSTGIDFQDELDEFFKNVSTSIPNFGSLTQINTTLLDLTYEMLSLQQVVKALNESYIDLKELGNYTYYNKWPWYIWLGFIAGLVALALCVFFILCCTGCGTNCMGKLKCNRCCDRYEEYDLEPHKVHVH
- assay info: cell-based or functional assay
- Parameters: unit not given beside the values
measured parameter: ND50 (PRNT with MERS-CoV)
Reply with the value as a number alone.

What ND50 (PRNT with MERS-CoV) value was documented for this binder, 90-C4 antibody (antibody, V domains shown) VH: QVQLQESGPGLVKPSGTLSLTCAVSGGSINSSNWWSWVRQPPGKGLEWIGEIYYSGSTNYNPSLKSRVTTSVDNSKNQFSLKLSSVTAADTAVYYCATFDSGGYNPNWFDPWGQGTLVTVSS VL: QSALTQPPSVSGAPGQRVTISCTGSSSSIGAGYDVHWYQQLPGTAPKLLIYGNSNRPSGVPDRFSGSKSGTSASLAITGLQAEDEADYYCQSYDSSLSGYVFGTGTKVTVLG ?
0.78

What ND50 (PRNT with MERS-CoV) value was documented for this binder, 77-A6 antibody (antibody, V domains shown) VH: EVQLLESGGGLVQPGGSLRLSCADSGLTFSSYAMSWVRQAPGKGLEWVSAISVSGGSTYYSDSVKGRFTISRDNSKNTLSLQMNSLRAEDTAVYYCVKARSIVGPFDYWGQGTLVTVSS VL: QSALTQPPSVSAAPGQKVTISCSGSSSNIGNNYVSWYQHLPGTAPKLLIYDNIMRPSGIPDRFSGSKSGTSATLGITGLQTGDEADYYCGTWDTSLSAVVFGGGTKLTVLG ?
95.7

What ND50 (PRNT with MERS-CoV) value was documented for this binder, 90-B7 antibody (antibody, V domains shown) VH: EVQLLESGGGLVKPGGSLRLSCAASGFTFGSYSMTWVRQAPGKGLEWVSSISSSSSYIYYADSVKGRFTISRDNAKNSLFLQMNSLRAEDTAVYYCARGNGYCSHNSCYKIGVWFDPWGQGTLVTVSS VL: QAVVTQPPSVSAAPGQKVTISCSGSSSNIGNNYVSWYQQLPGTAPKLLIYDNNKRPSGIPDRFSGSKSGTSATLGITGLQTGDEADYYCGTWDSSLSAFVFGTGTKVTVLG ?
14.9
